System: M. tuberculosis H37Rv (ATCC 27294)
Assay: Microplate Alamar blue assay (MABA)
Format: cell-based, Mycobacterium tuberculosis
Settings: Mycobacterium tuberculosis; M. tuberculosis H37Rv (ATCC 27294), replicating; read-out: MABA MIC
Answer each item with its documented MIC.

[
  {
    "compound": "CC(C)=CC1CC(C)C2CCC(C)c3c2c1c(C)c1nc(-c2ccc(F)cc2)oc31 (stereo not shown)",
    "result": "> 31 µg/mL"
  },
  {
    "compound": "COc1ccc(CC=C(C)C)c(OC)c1O[C@@H]1O[C@H](CO)[C@H](O)[C@H](O)[C@H]1O",
    "result": "> 128 µg/mL"
  },
  {
    "compound": "CC(C)=CC1CC(C)C2CCC(C)c3c2c1c(C)c1nc(Cc2ccccc2)oc31 (stereo not shown)",
    "result": "> 128 µg/mL"
  },
  {
    "compound": "CCCCCOc1c(C)c2c3c(c1O)[C@@H](C)CC[C@@H]3[C@@H](C)C[C@H]2C=C(C)C",
    "result": "> 128 µg/mL"
  },
  {
    "compound": "CSCCc1nc2c(C)c3c4c(c2o1)C(C)CCC4C(C)CC3C=C(C)C (stereo not shown)",
    "result": "107 µg/mL"
  },
  {
    "compound": "COc1c(C)c2c3c(c1OS(=O)(=O)C(F)(F)F)[C@@H](C)CC[C@@H]3[C@@H](C)C[C@H]2C=C(C)C",
    "result": "> 128 µg/mL"
  },
  {
    "compound": "COc1ccccc1-c1nc2c(C)c3c4c(c2o1)C(C)CCC4C(C)CC3C=C(C)C (stereo not shown)",
    "result": "> 82 µg/mL"
  },
  {
    "compound": "CC(C)=CC1CC(C)C2CCC(C)c3c2c1c(C)c1nc(C(C)O)oc31 (stereo not shown)",
    "result": "53 µg/mL"
  },
  {
    "compound": "NNC(=O)c1ccncc1",
    "result": "0.03 µg/mL"
  },
  {
    "compound": "COc1cc(CC=C(C)C)c(CC=C(C)C)c(OC)c1O",
    "result": "59 µg/mL"
  }
]

Each compound below has a reported value. Please supply its MIC.
1. COc1c(C)c2c3c(c1OC)[C@@H](C)CC[C@@H]3[C@@H](C)C[C@H]2C=C(C)C
2. CC(C)=C[C@@H]1C[C@H](C)[C@H]2CC[C@H](C)c3c(O)c(O)c(C)c1c32
3. CCC(C)c1nc2c(C)c3c4c(c2o1)C(C)CCC4C(C)CC3C=C(C)C (stereo not shown)

Response:
1. > 128 µg/mL
2. > 128 µg/mL
3. > 103 µg/mL
